System: BDF1 mice, Lewis lung carcinoma iv, survival T/C
Assay: NCI In Vivo Anticancer Drug Screen. Data for tumor model Lewis Lung Carcinoma (intravenous) in B6D2F1 (BDF1) mice
Settings: endpoint: median survival time; dose: 64.0 mg/kg/injection; schedule: Q01DX009 (ip); vehicle: Klucel (hydroxypropylcellulose) (HPC); higher = longer survival
Toxic doses and inconclusive results are not listed.
Reported T/C values follow for various compounds

compound: Cc1c[nH]c(=O)[nH]c1=O
T/C: 114 % of control
//
compound: O=c1ccn(C2OC(CO)C(O)C2O)c(=O)[nH]1 (stereo not drawn)
T/C: 96 % of control
//
compound: Nc1ncnc2c1ncn2C1OC(CO)C(O)C1O (stereo not drawn)
T/C: 108 % of control
//
compound: Nc1ccnc(=O)[nH]1
T/C: 98 % of control
//
compound: CC(C)NCC(O)COc1cccc2ccccc12 (stereo not drawn)
T/C: 100 % of control
//
compound: COC(=O)Nc1cccc(-c2nc3ccc(NC(=O)OC)cc3c(=O)n2-c2ccccc2)c1
T/C: 109 % of control
//
compound: Nc1ncnc2nc[nH]c12
T/C: 99 % of control
//
compound: O=c1cc[nH]c(=O)[nH]1
T/C: 96 % of control

* * *

Tested on: BDF1 mice, Lewis lung carcinoma iv, survival T/C
Assay: NCI In Vivo Anticancer Drug Screen. Data for tumor model Lewis Lung Carcinoma (intravenous) in B6D2F1 (BDF1) mice
Conditions: endpoint: median survival time; dose: 1.0 mg/kg/injection; schedule: Q01DX009 (ip); vehicle: saline; higher = longer survival
Inconclusive results and toxic doses are left out.
property.measured: T/C

molecule: CC1OC(O[C@H]2/C=C/C=C/C=C/C=C/C=C/C=C/C=C/[C@H](C)[C@@H](O)[C@@H](C)[C@H](C)OC(=O)C[C@H](O)C[C@H](O)CC[C@@H](O)[C@H](O)C[C@H](O)C[C@]3(O)C[C@H](O)[C@@H](C(=O)O)[C@H](C2)O3)C(O)C(N)C1O (stereo partly drawn)
result: 105 % of control
--
molecule: N[C@H](C(=O)O)[C@@H]1CC(Cl)=NO1
result: 103 % of control
--
molecule: Nc1nc(=S)c2[nH]cnc2[nH]1
result: 107 % of control
--
molecule: CC(=O)O[C@@H]1C(=O)C=C(C)[C@@H]2[C@@H](OC(=O)C=C(C)C)[C@H]3OC(=O)C[C@H]4[C@@H](C)[C@@H](O)[C@]5(O)OC[C@]34[C@H]5[C@@]12C
result: 107 % of control
--
molecule: CC(=O)OCC12C3CC(=O)OC1C(OC(=O)C=C(C)C)C1C(C)=CC(=O)C(OC(C)=O)C1(C)C2C(=O)C(OC(C)=O)C3C (stereo not drawn)
result: 91 % of control
--
molecule: N/C(=N\O)c1cn(C2OC(CO)C(O)C2O)c2ncnc(N)c12 (stereo not drawn)
result: 91 % of control
--
molecule: CCCCCCCCCCCC(c1ccccc1)[N+](C)(C)C (stereo not drawn)
result: 96 % of control
--
molecule: Nc1ncnc2c1ncn2C1C=C(CO)C(O)C1O (stereo not drawn)
result: 98 % of control
--
molecule: CO[C@@]12[C@H](COC(N)=O)C3=C(C(=O)C(C)=C(N)C3=O)N1C[C@@H]1N[C@@H]12
result: 101 % of control
--
molecule: Cc1c(N)nc([C@H](CC(N)=O)NC[C@H](N)C(N)=O)nc1C(=O)N[C@H](C(=O)N[C@H](C)[C@@H](O)CC(=O)N[C@H](C(=O)NC(O[C@@H]1O[C@@H](C)[C@@H](N)[C@@H](O)[C@H]1O)C(O)c1nc(-c2nc(C(=O)NCCCCN)cs2)cs1)[C@@H](C)O)[C@@H](O[C@@H]1O[C@@H](CO)[C@@H](O)[C@H](O)[C@@H]1O[C@H]1O[C@H](CO)[C@@H](O)[C@H](OC(N)=O)[C@@H]1O)c1c[nH]cn1 (stereo partly drawn)
result: 109 % of control
--
molecule: [Cl][Mn][Cl]
result: 109 % of control
--
molecule: CCCCCCCCCCCC(c1ccccc1)[N+](C)(C)Cc1ccccc1 (stereo not drawn)
result: 98 % of control
--
molecule: c1ccc([I+]c2ccccc2)cc1
result: 98 % of control

* * *

System: BDF1 mice, Lewis lung carcinoma iv, survival T/C
Assay: NCI In Vivo Anticancer Drug Screen. Data for tumor model Lewis Lung Carcinoma (intravenous) in B6D2F1 (BDF1) mice
Conditions: endpoint: median survival time; dose: 0.6 mg/kg/injection; schedule: Q04DX003 (ip); vehicle: saline; higher = longer survival
Toxic doses and inconclusive results are not listed.
property.measured: T/C

molecule: CC[C@]1(O)C[C@H]2CN(CCc3c([nH]c4ccccc34)[C@@](C(=O)OC)(c3cc4c(cc3OC)N(C=O)[C@H]3[C@@](O)(C(=O)OC)[C@H](OC(C)=O)[C@]5(CC)C=CCN6CC[C@]43[C@@H]65)C2)C1
assayed.target: BDF1 mice, Lewis lung carcinoma iv, survival T/C
result: 105 % of control
//
molecule: CCC1(O)CC2CN(CCc3c([nH]c4ccccc34)C(C(=O)OC)(c3cc4c(cc3OC)N(C)C3C(O)(C(=O)NCCO)C(O)C5(CC)C=CCN6CCC43C65)C2)C1 (centres undefined)
assayed.target: BDF1 mice, Lewis lung carcinoma iv, survival T/C
result: 96 % of control
//
molecule: CCC1(O)CC2CN(CCc3c([nH]c4ccccc34)C(C(=O)OC)(c3cc4c(cc3OC)N(C)C3C(O)(C(N)=O)C(O)C5(CC)C=CCN6CCC43C65)C2)C1 (centres undefined) (tested in a mixture with another compound)
assayed.target: BDF1 mice, Lewis lung carcinoma iv, survival T/C
result: 106 % of control
//
molecule: CC[C@]1(O)C[C@H]2CN(CCc3c([nH]c4ccccc34)[C@@](C(=O)OC)(c3cc4c(cc3OC)N(C)[C@H]3[C@@](O)(C(=O)OC)[C@H](OC(C)=O)[C@]5(CC)C=CCN6CC[C@]43[C@@H]65)C2)C1
assayed.target: BDF1 mice, Lewis lung carcinoma iv, survival T/C
result: 106 % of control

* * *

Tested on: BDF1 mice, Lewis lung carcinoma iv, survival T/C
Assay: NCI In Vivo Anticancer Drug Screen. Data for tumor model Lewis Lung Carcinoma (intravenous) in B6D2F1 (BDF1) mice
Conditions: endpoint: median survival time; dose: 4.0 mg/kg/injection; schedule: Q01DX009 (ip); vehicle: saline with Tween-80
Inconclusive results and toxic doses are left out. How the source made its calls: active means survival T/C of 150% or more; inactive means T/C below 125% in these data.
Classes used: true = active, false = inactive

compound: O=C1c2ccccc2C(=O)c2c(NCCNCCO)ccc(NCCNCCO)c21
assayed.target: BDF1 mice, Lewis lung carcinoma iv, survival T/C
group: false
//
compound: C=C1C(=O)OCC1(C(=O)OCC)C(=O)OCC
assayed.target: BDF1 mice, Lewis lung carcinoma iv, survival T/C
group: false
//
compound: O=NN(CCCl)C(=O)NC1CCC(=O)NC1=O (stereo not given)
assayed.target: BDF1 mice, Lewis lung carcinoma iv, survival T/C
group: true
//
compound: O=S(=O)(O)O
assayed.target: BDF1 mice, Lewis lung carcinoma iv, survival T/C
group: false
//
compound: CN(C)CCN1C(=O)c2cccc3cc(N)cc(c23)C1=O
assayed.target: BDF1 mice, Lewis lung carcinoma iv, survival T/C
group: false

* * *

Test system: BDF1 mice, Lewis lung carcinoma iv, survival T/C
Experiment: NCI In Vivo Anticancer Drug Screen. Data for tumor model Lewis Lung Carcinoma (intravenous) in B6D2F1 (BDF1) mice
Conditions: endpoint: median survival time; dose: 25.0 mg/kg/injection; schedule: Q01DX009 (ip); vehicle: saline; higher = longer survival
Toxic doses and inconclusive results are not listed.
Entries and their measured T/C follow.

compound: O=C1NC(O)CCN1C1OC(CO)C(O)C1O (stereo not given)
assayed.target: BDF1 mice, Lewis lung carcinoma iv, survival T/C
T/C: 100 % of control
--
compound: CC(=O)OCC1OC(n2ccc(N)nc2=O)C(OC(C)=O)C1OC(C)=O (stereo not given)
assayed.target: BDF1 mice, Lewis lung carcinoma iv, survival T/C
T/C: 98 % of control
--
compound: CCOC(=O)C(N)CSC(=O)NC (stereo not given)
assayed.target: BDF1 mice, Lewis lung carcinoma iv, survival T/C
T/C: 105 % of control
--
compound: CCC(C)n1ncc2c(N(C)C)ncnc21 (stereo not given)
assayed.target: BDF1 mice, Lewis lung carcinoma iv, survival T/C
T/C: 102 % of control
--
compound: C=C(C)[C@@H]1CCc2c(O)c(O)c(=O)cc(C)c2C1
assayed.target: BDF1 mice, Lewis lung carcinoma iv, survival T/C
T/C: 101 % of control
--
compound: O=C1C=CC(=O)O1 (tested in a mixture with another compound)
assayed.target: BDF1 mice, Lewis lung carcinoma iv, survival T/C
T/C: 101 % of control
--
compound: Nc1ncnc2c1cnn2Cc1ccc(Cl)cc1
assayed.target: BDF1 mice, Lewis lung carcinoma iv, survival T/C
T/C: 112 % of control
--
compound: O=C(O)C(CSC(c1ccccc1)(c1ccccc1)c1ccccc1)N=Cc1cccs1 (stereo not given)
assayed.target: BDF1 mice, Lewis lung carcinoma iv, survival T/C
T/C: 102 % of control
--
compound: NC(=O)C(F)C(N)C(=O)O (stereo not given)
assayed.target: BDF1 mice, Lewis lung carcinoma iv, survival T/C
T/C: 99 % of control
--
compound: Nc1nc(/C=C(/O)c2ccccc2)c2ncn(C3OC(CO)C(O)C3O)c2n1 (stereo not given)
assayed.target: BDF1 mice, Lewis lung carcinoma iv, survival T/C
T/C: 107 % of control
--
compound: CN1CCN(c2ccc3nc(-c4ccc5nc(-c6ccc(O)cc6)[nH]c5c4)[nH]c3c2)CC1
assayed.target: BDF1 mice, Lewis lung carcinoma iv, survival T/C
T/C: 120 % of control
--
compound: CCCC(=O)O
assayed.target: BDF1 mice, Lewis lung carcinoma iv, survival T/C
T/C: 104 % of control
--
compound: N=C(N)SCc1cccc2c(=O)cc(-c3ccccc3)oc12
assayed.target: BDF1 mice, Lewis lung carcinoma iv, survival T/C
T/C: 106 % of control
--
compound: CC(=O)N(C)c1ccc(Nc2cc(C)[nH]c3ccc4ncnc4c23)cc1
assayed.target: BDF1 mice, Lewis lung carcinoma iv, survival T/C
T/C: 93 % of control
--
compound: O=C(/C=C(\Cl)C(=O)NO)NO
assayed.target: BDF1 mice, Lewis lung carcinoma iv, survival T/C
T/C: 105 % of control
--
compound: O=C1CN(CN2CCOCC2)C(=O)CN1CN1CCOCC1
assayed.target: BDF1 mice, Lewis lung carcinoma iv, survival T/C
T/C: 113 % of control
--
compound: N=c1ccn2c(n1)OC1C(O)C(CO)OC12 (stereo not given)
assayed.target: BDF1 mice, Lewis lung carcinoma iv, survival T/C
T/C: 104 % of control
--
compound: [CH3][Sn]([CH3])([Cl])[S]CCN
assayed.target: BDF1 mice, Lewis lung carcinoma iv, survival T/C
T/C: 91 % of control
--
compound: COc1nc(=O)n(C2C=CC(=O)O2)cc1F (stereo not given)
assayed.target: BDF1 mice, Lewis lung carcinoma iv, survival T/C
T/C: 96 % of control
--
compound: COC(OC(CO)C(O)S(=O)(=O)O)C(O)S(=O)(=O)O (stereo not given)
assayed.target: BDF1 mice, Lewis lung carcinoma iv, survival T/C
T/C: 106 % of control
--
compound: C(CSC1=NCCN1)CSC1=NCCN1
assayed.target: BDF1 mice, Lewis lung carcinoma iv, survival T/C
T/C: 93 % of control
--
compound: CC(=O)OCc1ncccc1OC(C)=O
assayed.target: BDF1 mice, Lewis lung carcinoma iv, survival T/C
T/C: 97 % of control
--
compound: C1OC1CO[C@@H]1CO[C@H]2[C@@H]1OC[C@H]2OCC1CO1 (stereo not given in full)
assayed.target: BDF1 mice, Lewis lung carcinoma iv, survival T/C
T/C: 100 % of control
--
compound: CN(C)[C@@H]1C(=O)C(C(N)=O)=C(O)[C@@]2(O)C(=O)C3=C(O)c4c(O)ccc(Cl)c4[C@@](C)(O)[C@H]3C[C@@H]12
assayed.target: BDF1 mice, Lewis lung carcinoma iv, survival T/C
T/C: 101 % of control
--
compound: CNc1nc(N(C)C)nc(N(C)C)n1
assayed.target: BDF1 mice, Lewis lung carcinoma iv, survival T/C
T/C: 98 % of control
